assay: protein stability index of a GFP-peptide fusion (yeast GPS) (PSI 1-4); higher = more stable; sorted into four equal gates, so the index is relative within each strain; settings: pdr5∆
Decision: protein stability index >= 2 yields T, all other cases yield F.

| residues | classification |
| --- | --- |
| NLQGDLQAIQEKLNKTD [ITC1] | T |
| ADLERFFLSIYFFYASR [YJL039C/NUP192] | F |
| MSSDASTYRLEDVLSSF [SSN2] | T |
| LTFILGQLLSVKFLVYQ [YML031W/NDC1] | T |
| DLSWSKQTDTGITHFRA [PRP8] | T |
| HKQISAEDLTIAAKTHI [SIN4] | T |
| DNFDYFNQRDGEHEKSN [MED1] | T |
| RRISSMPGGYFHSEISP [YAR002W/NUP60] | F |
| ITSFLLSKMENVNLDDY [NAS6] | F |
| QNDELTMGMRALLKLSV [DIS3] | T |
| VPSPTGEYVKEPEWVLE [RPO21] | T |
| FRCKETHSYNFMRQNLE [RPC82] | F |
| RLELPVDFQNDLKDILE [BRR2] | T |
| MPPKFDPNEVKYLYLRA [RPL12A] | T |

Value source: the supplement of paper PMC9732359
